Please go through the items and note down their pEC50.
Target: human CB1 receptors (Homo sapiens (Human))
Sequence (P21554 whole entry): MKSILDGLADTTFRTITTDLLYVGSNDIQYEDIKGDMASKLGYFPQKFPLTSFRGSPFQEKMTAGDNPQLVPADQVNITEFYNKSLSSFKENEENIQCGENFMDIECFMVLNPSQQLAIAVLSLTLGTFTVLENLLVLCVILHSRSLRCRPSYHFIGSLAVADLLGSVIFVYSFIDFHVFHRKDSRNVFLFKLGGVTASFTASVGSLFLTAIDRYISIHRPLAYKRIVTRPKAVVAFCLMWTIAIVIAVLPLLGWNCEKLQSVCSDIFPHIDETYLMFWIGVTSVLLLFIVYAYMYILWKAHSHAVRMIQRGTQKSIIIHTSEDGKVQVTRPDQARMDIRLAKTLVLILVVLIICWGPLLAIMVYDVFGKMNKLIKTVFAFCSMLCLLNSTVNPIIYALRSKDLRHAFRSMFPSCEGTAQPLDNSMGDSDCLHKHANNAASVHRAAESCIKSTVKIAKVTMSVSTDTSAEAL
Test: cAMP assay, CHO cells expressing human CB1 receptors
Format: cell-based
Conditions: functional cAMP assay, CHO cells expressing human CB1; read-out: human CB1 EC50
Method: CHO cells expressing human CB1 or CB2 receptors are seeded 17-24 hours prior to the experiment 50.000 cells per well in a black 96 well plate with flat clear bottom (Corning Costar #3904) in DMEM (Invitrogen No. 31331), 1×HT supplement, with 10% fetal calf serum and incubated at 5% CO2 and 37° C. in a humidified incubator. […] The time-resolved energy transfer is measured by a TRF reader (Evotec Technologies GmbH), equipped with a ND:YAG laser as excitation source. […]
pEC50: −log10 of the molar value.

[in] State, in one line, measured pEC50 of NC(=O)[C@H]1CCCC[C@@H]1NC(=O)c1ccc(C2CC2)c(OCC2CC2)n1 (stereo in doubt) [Example 16]
[out] 6.77

[in] State, in one line, measured pEC50 of CC(=O)N1CCC(CC(N)=O)(NC(=O)c2ccc(C3CC3)c(Cc3ccc(F)cc3)n2)CC1 [Example 72]
[out] < 5.00

[in] State, in one line, measured pEC50 of NC(=O)CC1(NC(=O)c2ccc(C3CC3)c(OCC3CC3)n2)CCOC1 (stereo not shown) [Example 88]
[out] < 5.00

[in] State, in one line, measured pEC50 of NC(=O)CC1(NC(=O)c2ccc(C3(O)CCC3)c(OCC3CC3)n2)CSC1 [Example 95]
[out] < 5.00

###

molecular target: UniProt P34972; experiment: cAMP assay, CHO cells expressing human CB2 receptors; assay type: cell-based
Please go through the items and note down their pEC50.
Please report pEC50 as the negative decimal logarithm of the molar concentration, giving only the number.

[in] State, in one line, measured pEC50 of NC(=O)CC1(NC(=O)c2ccc(C3CC3)c(Cc3ccc(F)cc3)n2)CNC1 [Example 81]
[out] 7.82

[in] State, in one line, measured pEC50 of NC(=O)CC1(NC(=O)c2ccc(C3CC3)c(Cc3ccc(F)cc3)n2)CCOC1 (centres unmarked) [Example 87]
[out] 9.52

###

Please go through the items and note down their pEC50.
target: human CB2 receptors (Homo sapiens (Human), UniProt P34972); assay: cAMP assay, CHO cells expressing human CB2 receptors; type: cell-based; conditions: functional cAMP assay, CHO cells expressing human CB2; read-out: human CB2 EC50
Sequence (P34972 whole entry): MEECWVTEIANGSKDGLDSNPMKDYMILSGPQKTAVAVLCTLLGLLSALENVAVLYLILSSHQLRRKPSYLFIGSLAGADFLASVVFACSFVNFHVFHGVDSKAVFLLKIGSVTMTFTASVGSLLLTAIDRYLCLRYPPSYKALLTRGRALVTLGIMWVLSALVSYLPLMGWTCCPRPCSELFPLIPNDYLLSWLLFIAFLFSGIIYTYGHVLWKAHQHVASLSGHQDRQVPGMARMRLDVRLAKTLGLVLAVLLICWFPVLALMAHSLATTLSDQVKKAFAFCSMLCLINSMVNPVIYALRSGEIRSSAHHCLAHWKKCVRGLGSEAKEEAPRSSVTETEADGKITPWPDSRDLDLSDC
Please report pEC50 as the negative decimal logarithm of the molar concentration, giving only the number.

[in] State, in one line, measured pEC50 of "CNC(=O)CC1(NC(=O)c2ccc(C3CC3)c(OCC3CC3)n2)COC1"
[out] 7.00

[in] State, in one line, measured pEC50 of "NC(=O)[C@H]1CCCC[C@H]1NC(=O)c1ccc(N2CC(F)(F)C2)c(OCC2CC2)n1"
[out] 6.39

[in] State, in one line, measured pEC50 of "O=C(O)CC1(NC(=O)c2ccc(N3CC(F)(F)C3)c(OCC3CC3)n2)CS(=O)(=O)C1"
[out] 8.52

[in] State, in one line, measured pEC50 of NC(=O)CC(NC(=O)c1ccc(N2CC(F)(F)C2)c(OCC2CC2)n1)C(F)(F)F (stereo not shown)
[out] 8.52

[in] State, in one line, measured pEC50 of "NC(=O)CC1(NC(=O)c2ccc(C3CC3)c(OCC(F)(F)C(F)(F)F)n2)COC1"
[out] 7.90

[in] State, in one line, measured pEC50 of "NC(=O)CC1(NC(=O)c2ccc(C(F)(F)F)c(OCC3CCOCC3)n2)CS(=O)(=O)C1"
[out] 7.39

[in] State, in one line, measured pEC50 of NC(=O)CC(NC(=O)c1ccc(C2CC2)c(OCC2CC2)n1)C1CCOCC1 (single isomer, unassigned; (-)) [Example 34]
[out] 8.66
